A collection of compounds and their measured inhibition
# Tested on: Plasmodium falciparum
# ASSAY DETAILS: MMV: P. falciparum NF54 functionally mature Stage V gametocytes were incubated for 24 hr in the presence of the test compounds. Gamete formation was then triggered by addition of 2uM xantheurenic acid and temperature decrease to ~20C. Male gamete exflagellation was recorded and analysed by automated microscopy after 20 min. All compounds were tested in 4 independent experiments and data presented here is the mean.
# Assay type: functional
# Design: concentration or dose not given beside the values
Answer in %, number only, no unit symbol.

Please review the following examples before continuing.
- COMPOUND: "Cc1ccc(N2C3c4ccccc4N(S(=O)(=O)c4ccc(C)cc4)C2c2ccccc2N3S(=O)(=O)c2ccc(C)cc2)cc1"
  inhibition [%]: 24.2
- COMPOUND: "O=C(c1ccccc1F)N(Cc1ccc(Cl)cc1)c1ccccn1"
  inhibition [%]: 20.3
- COMPOUND: "O=C(NC1CCN(Cc2ccccc2)CC1)c1cc2nc(-c3ccc(Cl)s3)cc(C(F)(F)F)n2n1"
  inhibition [%]: -4.49
- COMPOUND: "COc1ccc(C(=O)C(CCC(CNC(C)(C)C)C(=O)c2ccc(OC)cc2)CNC(C)(C)C)cc1 (centres undefined)"
  inhibition [%]: 16.3
- COMPOUND: "Oc1ccc(Cl)cc1CNc1nc2ccccc2[nH]1"
  inhibition [%]: 53.3
- COMPOUND: "Cc1ccc(N2C(=O)C3C(C2=O)C2(c4ccccc4)C(=O)C3(c3ccccc3)C(c3ccccc3)=C2c2ccccc2)cc1 (centres undefined)"
  inhibition [%]: 21.2
- COMPOUND: "Cc1ccc(OCCCCCCNCCO)c(C)c1"
  inhibition [%]: -19.1
- COMPOUND: "CCOC(=O)C1=CN(C)C=C(C(=O)OCC)C1c1cc(Br)c(OCC)c(OC)c1"
  inhibition [%]: 22.3
- COMPOUND: "CCCc1c(C)nc2ccccc2c1O"
  inhibition [%]: 66.4
- COMPOUND: "CC(C)(C)CC(C)(C)NCC(O)COc1ccc2c(c1)CCC2.Cl (centres undefined)"
  inhibition [%]: -54.4

Suppose we examine the compound FC(F)(F)c1ccc(Nc2nnnc3ccccc23)cc1 ; what inhibition value has been reported? 33.7

# iterate: COc1ccc2c(c1OC)C(=O)N1c3ccccc3N=C(c3ccc(C)cc3)CC21 (centres undefined) 8.91

# iterate: Oc1c2c(nc3cc(-c4ccccc4)nn13)CCCC2 1.37

# iterate: CC1(c2ccccc2)Nc2ccccc2-c2nc3ccccc3n21 (centres undefined) 11.7

# iterate: Cc1ccc(Nc2nc(NCCO)c3ccccc3n2)cc1C 12.7

# iterate: CC1CC2=C(CC1CNCCCN(C)C)C(C)(C)CCC2 (centres undefined) 62.3

# iterate: O=C(NCc1ccco1)C1CCN(S(=O)(=O)c2ccc(Cl)cc2)CC1 46.2

# iterate: COc1cccc(Cn2c(Oc3ccccc3)nc3c2c(=O)n(C)c(=O)n3C)c1 35.5

# iterate: CCN(CC)CCn1c(=N)n(CC(O)c2ccc(Cl)c(Cl)c2)c2ccccc21.Cl (centres undefined) -66.5

# iterate: CC(=O)Nc1nnc(SCc2c(C)cc(C(C)(C)C)cc2C)s1 17.4

# iterate: COc1ccc(-c2c(C)nn3c(N)c(C#N)cnc23)cc1OC -13.8

# iterate: CCCCc1ccc(NS(=O)(=O)c2cc3c4c(c2)CCN4C(=O)CC3)cc1 15.5

# iterate: Cc1cc(=O)oc2c1ccc1oc(C(=O)c3ccccc3)c(C)c12 -11.5

# iterate: O=c1cc(NC2CCN(CCCc3ccccc3)CC2)c2cc(Cl)ccc2o1 -9.89

# iterate: CC(C)(C)CC(C)(C)NCC(O)COc1ccc(Cl)cc1Cl (centres undefined) -10.7

# iterate: CCCC(c1nnnn1C1CCCCC1)N1CCN(C(=O)c2ccco2)CC1.Cl (centres undefined) 23.7

# iterate: CCOc1ccc2c(c1)CN(Cc1ccc(Cl)cc1)CO2 18.9

# iterate: COCCNC(=O)c1ccc(OC2CCN(Cc3ccc(F)c(F)c3)CC2)c(Cl)c1 16.4

# iterate: CCc1ccc(Nc2cc(C)nc3nc(C)nn23)cc1 20.5

# iterate: COc1ccc(C(=O)NC(c2ccc(Cl)cc2Cl)c2cc(Cl)c3cccnc3c2O)cc1 (centres undefined) -11.1

# iterate: Cc1cc(N2CCCC2)nc(Nc2ccc(NC(=O)CCc3ccccc3)cc2)n1 -19.1

# iterate: CCCN(CCC)CC(O)COc1ccccc1C(=O)Nc1ccccc1 (centres undefined) 0.885

# iterate: COc1cc2cc(C(=O)Nc3ccccc3)c(N)nc2cc1OC 22

# iterate: Cc1c(C)n(Cc2ccc(F)cc2)c2ccc(C(=O)NCc3ccco3)cc12 49.7

Reference source for all entries: ChEMBL document CHEMBL3301451
